B1: tRNA (parent)
chain: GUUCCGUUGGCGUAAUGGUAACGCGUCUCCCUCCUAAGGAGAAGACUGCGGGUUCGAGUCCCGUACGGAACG

variants of: B1; experiment: yeast fitness relative to wild type (ratio to wild type); higher = fitter; tRNA-Arg(CCU), competitive growth, 37 C, YPD
Variants at the floor of the assay were thinned out.
Exercise: state measured yeast fitness for each of the variants provided.
Answers are plain numbers.

G9C A14C A15U G23A C34A G52C G63C = 0.585

Could you now consider this next variant?
IN: Look at this variant and give its reported yeast fitness. A20G C24A A70U
OUT: 0.546
